B1: DNA-binding protein HU, P0A3H0 (parent)
chain: MNKTELINAVAETSGLSKKDATKAVDAVFDSITEALRKGDKVQLIGFGNFEVRERAARKGRNPQTGEEMEIPASKVPAFKPGKALKDAVK

Variants of: B1
Conditions: Geobacillus stearothermophilus; pH 7; Thermal; DSC; phosphate 0.05 M; structure 1HUE; whole UniProt chain shown

itemSequence	Tm (°C)
MNKTELINAVAETSELSKKDATKAVDAVFDSITEALRKGDKVQLIGFGNFEVRERAARKGRNPQTGEEMEIPASKVPAFKPGKALKDAVK [G15E]	55.7
MNKTELINAVAETSGLSKKDATKAVDAVFDSITDALRKGDKVQLIGFGNFEVRERAARKGRNPQTGEEMEIPASKVPAFKPGKALKDAVK [E34D]	63.5
MNKTELINAVAETSGLSKKDATKAVDAVFDSITEALRNGDKVQLIGFGNFEVRERAARKGRNPQTGEEMEIPASKVPAFKPGKALKDAVK [K38N]	61.7
MNKTELINAVAETSGLSKKDATKAVDAVFDSITEALRKGDKIQLIGFGNFEVRERAARKGRNPQTGEEMEIPASKVPAFKPGKALKDAVK [V42I]	59.6

Data credit: FireProtDB (doi:10.1074/jbc.273.32.19982)
